# assay explanation: ZM109 Env clade C HIV-1 fusion inhibitors, dose response, HeLa effector, CEM target cells, luciferase, cherry-pick (AID 652058)
# Format: functional, cell-based
Activity calls are given as the source filed them. The rule behind the calls is not given here.
Examples of compounds with documented AC50 follow.

molecular string	AC50
Cc1n[nH]c(C)c1S(=O)(=O)N(CC(=O)NC1CCCC1)c1ccc(C(C)C)cc1	2380 nM (active)
CC(C)NC(=O)Nc1ccc2c(c1)C(=O)N([C@@H](C)CO)C[C@@H](C)[C@@H](CN(C)C(=O)CCC(F)(F)F)OCCCC[C@@H](C)O2	518 nM (active)
O=C(Nc1ccc(Cl)c(Cl)c1)N[C@H]1CC[C@H](CCn2cc(C3CCCCC3)nn2)O[C@@H]1CO	16800 nM (active)
COC(=O)[C@@]1(C)[C@H]2C(=O)N(Cc3ccccc3)C(=O)[C@H]2[C@H]2CN=C(SCc3ccc(Cl)cc3)N21	891 nM (active)
CCCNC(=O)N1[C@H](C#N)[C@H](c2ccc(-c3ccc(C(=O)N(C)C)cc3)cc2)[C@@H]1CO	32800 nM (active)
